Experiment: gradient 5% acetonitrile 3 min, to 50% in 2 min, to 85% in 15 min, held 3 min, 100 µL/min
Conditions: column: Zorbax Extend-C18 2.1 x 50 mm; eluents: water / acetonitrile, 0.1% formic acid
// boundary case: RP-LC retention time equal to 900 s maps to Not met; strictly smaller maps to Met

Exercise: Does this compound meet the criterion RP-LC retention time < 900 s? CCOC(=O)C1=C(C)N(CC(=O)NCC2CCCO2)c2ncnn2C1c1ccccc1 (stereo not given)
Key: Met

Exercise: Strictly below 900 s in RP-LC retention time? Cc1nc(C)c(C(=O)N2CCCC2c2nc(CCOCC3CC3)no2)s1 (stereo not given)
Key: Met

Exercise: # check: RP-LC retention time < 900 s for CCn1ccc2sc(C)c(C(=O)NCc3cccc(C)c3)c2c1=O
Key: Met

Exercise: Quick check: RP-LC retention time of CCOC(=O)c1ccc(NC(=O)c2c(C)oc3nc(C)nc(N4CCCC4)c23)cc1 under 900 s?
Key: Met

Exercise: A record lists CN1CCN(c2nc(C(=O)NC3CCN(c4ccc(=O)n(C)n4)CC3)cs2)CC1 . Is its RP-LC retention time below 900 s?
Key: Met

Exercise: Report whether reported RP-LC retention time is lower than 900 s (strictly) for CN(Cc1ccccc1)C(=O)C1CCN(S(=O)(=O)Cc2ccccc2)CC1
Key: Met

Exercise: Given the entry CC(C)C(=O)Nc1ccc(-n2cnc(C(=O)NCc3ccc(Cl)cc3)c2)nc1 , would its reported RP-LC retention time be below 900 s?
Key: Met

Exercise: Quick check: RP-LC retention time of O=C(COc1ccc(Cl)cc1)N1CCN(CC(F)(F)F)CC1 under 900 s?
Key: Met

Exercise: Is the reported RP-LC retention time for CCc1cc(-c2csc(S(=O)(=O)N(Cc3ccccc3)C(C)C)c2)on1 strictly below 900 s?
Key: Not met

Exercise: Please check: RP-LC retention time for O=C(Cc1csc(-c2ccccc2)n1)Nc1nc(-c2ccccc2)cs1 , strictly under 900 s or not?
Key: Not met

Exercise: Is 900 s strictly greater than the compound's reported RP-LC retention time? compound: CCCN1C(=O)COc2ccc(-c3csc(NC(=O)CCC4CCCCC4)n3)cc21
Key: Not met

Exercise: Check if RP-LC retention time falls below 900 s for O=C1NC2(CCN(C(=O)c3ccc4c(c3)OCO4)CC2)Nc2cc(Cl)ccc21 .
Key: Met

Exercise: Lab note: confirm whether the reported RP-LC retention time for this compound is below 900 s, equality not counting. compound: Cc1ccc(S(=O)(=O)NC(C)c2nc(-c3ccc(NS(C)(=O)=O)cc3)no2)cc1 (stereo not given)
Key: Met

Exercise: Here's an entry: CC1(C(=O)NCc2ccccc2)CN(S(=O)(=O)c2ccccc2)CC(=O)N1c1cccc(Cl)c1 (stereo not given) . Is its RP-LC retention time below 900 s?
Key: Not met

Exercise: In plain terms, does CCOCC(=O)N1CC(c2nc(-c3ccccc3)no2)C2(CCOCC2)C1 (stereo not given) come in under 900 s for RP-LC retention time?
Key: Met

Exercise: Hi there! Is RP-LC retention time for COc1ccc(-c2cc3n(n2)CCCN(C(=O)c2cccnc2)C3)cc1 below 900 s, do you know?
Key: Met

Exercise: Is 900 s strictly greater than the compound's reported RP-LC retention time? compound: Cc1cccc(CN2CCN(C3CCN(C(=O)Nc4ccccc4)CC3)C2=O)c1
Key: Met

Exercise: Is it true that RP-LC retention time reported for CCCNC(=O)C1CCN(c2ccc(SCC(=O)Nc3cc(F)ccc3C)nn2)CC1 is less than 900 s?
Key: Met
